experimentalSystem: Full length WRN protein (aa 2-1432) (Homo sapiens (Human))
protocolSummary: WRN ATPase ADP-Glo biochemical assay, Assay Format A (10 μM ATP)
conditionSummary: 0.25 nM WRN, 100 nM C6.18 ssDNA, 30 min preincubation, read-out: ATPase ADPGlo AC50 (uM)- Assay Format A
measuredMetric: AC50

> print(dat)
                                   compound  measuredmetric  experimentalvalue
1  C=CC(=O)N1CC(F)c2nn(-c3ccc(C4CCC4)cc3)c3c2C(C1)N(C(=O)c1ccc(Br)c2[nH]cnc12)CC3 (stereo not drawn)            AC50        < 0.0015 µM
2  C=CC(=O)N1CCc2nn(-c3ccc(C4CC4)cc3)c3c2C(C1)N(C(=O)c1ccc(Br)c2[nH]nc(N)c12)CC3 (stereo not drawn)            AC50        < 0.0015 µM

Moving on to another compound below.
For C=CC(=O)N1CCc2nn(-c3ccc(C(C)C)cc3)c3c2C(C1)N(C(=O)c1ccc(Br)c(NCC(F)(F)F)c1)CC3 (stereo not drawn) , what is its reported AC50?
0.005 to 0.015 µM

###

Below, each entry is listed alongside its reported AC50.
experimentalSystem: Full length WRN protein (aa 2-1432) (Homo sapiens (Human))
protocolSummary: WRN ATPase ADP-Glo biochemical assay, Assay Format A (10 μM ATP)
conditionSummary: 0.25 nM WRN, 100 nM C6.18 ssDNA, 30 min preincubation, read-out: ATPase ADPGlo AC50 (uM)- Assay Format A

> print(dat)
                                   compound   experimentalvalue
1  C=CC(=O)N1CCc2nn(-c3ccc(C45CC(C4)C5)cc3)c3c2C(C1)N(C(=O)c1ccc(Br)c2[nH]cnc12)CC3 (stereo not drawn) [Compound 4]         < 0.0015 µM
2  CC(C)c1ccc(-n2nc3c4c2CCN(C(=O)c2ccc(Br)c5[nH]cnc25)C4CN(C(=O)/C=C/CN(C)C)CC3)cc1 (stereo not drawn) [Compound 15]   0.015 to 0.055 µM
3  C=CC(=O)N1CCc2nn(-c3ccc(C4CCC4)cc3O)c3c2C(C1)N(C(=O)c1ccc(Br)c2[nH]cnc12)CC3 (stereo not drawn) [Compound 23]         < 0.0015 µM
4  C=CC(=O)N1CCc2nn(-c3ccc(C4CCC4)cc3O)c3c2C(C1)N(C(=O)c1ncc(C(F)(F)F)c(N)n1)CC3 (stereo not drawn) [Compound 159]  0.0015 to 0.005 µM
5  C=CC(=O)N1CCc2nn(-c3ccc(C4CC4)cc3)c3c2C(C1)N(C(=O)c1cnc(C(F)(F)F)c(F)c1N)CC3 (stereo not drawn) [Compound 178]         < 0.0015 µM

Then there is this compound:
Report AC50 for C=CC(=O)N1CCc2nn(-c3ccc(C4CCC4)cc3O)c3c2C(C1)N(C(=O)c1ccc(Br)c2nc(CCO)[nH]c12)CC3 (stereo not drawn) [Compound 148] tested on Full length WRN protein (aa 2-1432) (Homo sapiens (Human)).
< 0.0015 µM

###

experimentalSystem: Full length WRN protein (aa 2-1432) (Homo sapiens (Human), UniProt Q14191)
Sequence (Q14191 2-1432): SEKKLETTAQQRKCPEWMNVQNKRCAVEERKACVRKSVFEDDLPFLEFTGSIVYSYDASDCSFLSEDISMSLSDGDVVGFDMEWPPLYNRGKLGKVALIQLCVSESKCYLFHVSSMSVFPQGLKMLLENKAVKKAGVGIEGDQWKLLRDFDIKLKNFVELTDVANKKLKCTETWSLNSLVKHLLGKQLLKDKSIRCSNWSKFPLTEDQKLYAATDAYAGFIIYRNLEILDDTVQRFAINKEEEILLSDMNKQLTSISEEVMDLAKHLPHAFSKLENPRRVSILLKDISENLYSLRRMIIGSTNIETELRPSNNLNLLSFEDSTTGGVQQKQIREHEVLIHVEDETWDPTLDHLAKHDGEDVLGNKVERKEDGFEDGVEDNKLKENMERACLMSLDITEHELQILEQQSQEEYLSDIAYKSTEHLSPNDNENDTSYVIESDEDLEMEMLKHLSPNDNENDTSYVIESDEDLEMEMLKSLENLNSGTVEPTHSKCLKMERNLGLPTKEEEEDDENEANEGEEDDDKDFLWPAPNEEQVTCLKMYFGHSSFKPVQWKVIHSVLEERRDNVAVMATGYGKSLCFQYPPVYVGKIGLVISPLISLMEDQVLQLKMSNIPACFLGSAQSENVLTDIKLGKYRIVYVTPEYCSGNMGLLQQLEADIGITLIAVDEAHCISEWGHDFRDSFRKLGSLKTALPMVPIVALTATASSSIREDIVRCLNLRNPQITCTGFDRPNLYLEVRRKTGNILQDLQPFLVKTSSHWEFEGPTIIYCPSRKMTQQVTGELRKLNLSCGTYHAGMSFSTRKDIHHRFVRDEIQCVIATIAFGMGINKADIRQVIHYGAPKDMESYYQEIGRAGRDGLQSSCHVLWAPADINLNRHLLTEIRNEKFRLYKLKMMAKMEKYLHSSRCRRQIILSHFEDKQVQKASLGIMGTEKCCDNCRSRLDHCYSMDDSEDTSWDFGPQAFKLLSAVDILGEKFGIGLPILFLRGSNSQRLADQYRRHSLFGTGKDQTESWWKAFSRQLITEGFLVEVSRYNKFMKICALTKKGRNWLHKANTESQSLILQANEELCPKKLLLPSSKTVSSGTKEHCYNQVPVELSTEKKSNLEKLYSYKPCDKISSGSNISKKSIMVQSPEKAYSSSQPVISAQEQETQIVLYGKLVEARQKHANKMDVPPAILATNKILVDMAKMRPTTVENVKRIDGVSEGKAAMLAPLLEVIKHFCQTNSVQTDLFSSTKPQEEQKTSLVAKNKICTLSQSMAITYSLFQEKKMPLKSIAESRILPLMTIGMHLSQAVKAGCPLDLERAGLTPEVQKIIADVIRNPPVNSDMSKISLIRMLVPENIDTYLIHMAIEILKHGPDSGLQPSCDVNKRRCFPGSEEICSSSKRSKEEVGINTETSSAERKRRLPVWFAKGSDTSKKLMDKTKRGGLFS
protocolSummary: WRN ATPase ADP-Glo biochemical assay, Assay Format A (10 μM ATP)
conditionSummary: 0.25 nM WRN, 100 nM C6.18 ssDNA, 30 min preincubation, read-out: ATPase ADPGlo AC50 (uM)- Assay Format A
measuredMetric: AC50

# example entries with known answers
> print(dat)
                                   molecule   experimentalvalue
1  C=CC(=O)N1CCc2nn(-c3ccc(C4CC4)cc3O)c3c2C(C1)N(C(=O)c1cnc(Cl)cc1N)CC3 (stereo not shown)         < 0.0015 µM
2  C=CC(=O)N1CCn2nc(-c3ccc(C(C)C)cc3)c3c2C(C1)N(C(=O)c1ccc(Br)c(O)c1)CC3 (stereo not shown)   0.015 to 0.055 µM
3  C=CC(=O)N1CCOc2nn(-c3ccc(C(C)C)cc3O)c3c2C(C1)N(C(=O)c1cnc(C(F)(F)F)c(O)c1)CC3 (stereo not shown)  0.0015 to 0.005 µM
4  C=CC(=O)N1CCc2nn(-c3ccc(C4CCC4)cc3O)c3c2C(C1)N(C(=O)c1ncc(Br)c2[nH]cnc12)CC3 (stereo not shown)         < 0.0015 µM

Any idea what its AC50 is? The molecule is C=CC(=O)N1CCOc2nn(-c3ccc(C4CCC4)cc3)c3c2C(C1)N(C(=O)c1ccc(Br)c2[nH]cnc12)CC3 (stereo not shown)
0.0015 to 0.005 µM

Which AC50 is reported for this molecule? C=CC(=O)N1CC(OC)c2nn(-c3ccc(C4CCC4)cc3O)c3c2C(C1)N(C(=O)c1cnc(C(F)(F)F)c(O)c1)CC3 (stereo not shown)
< 0.0015 µM

Report AC50 for C=CC(=O)N1CC(OCc2cccnc2)c2nn(-c3ccc(C4CC4)cc3)c3c2C(C1)N(C(=O)c1cnc(C(F)(F)F)cc1N)CC3 (stereo not shown) please.
< 0.0015 µM
